System: UACC-257 melanoma
test_summary: NCI tumour cell line growth inhibition, 48 h
Collected TGI values appear next to each entry.

Sample answers from the record:
| compound | TGI |
| --- | --- |
| Cc1nnc(N)nc1/C=C\c1ccc(N(C)C)cc1 | > 100 µM |
| CC1=C(C(=O)NNC(=O)c2ccccc2)CC(C(=O)NNC(=O)c2ccccc2)=C(C)N1 | > 100 µM |
| COc1ccc2cc(C(=O)Nc3ccc(O)c(C(=O)O)c3)ccc2c1OC | > 100 µM |

Entry `[Co+2].[O-]c1ccccc1C=NCc1ccccc1.[O-]c1ccccc1C=NCc1ccccc1` : reported TGI = ? > 100 µM

Entry `O=C1C(=C/C=C2/SC(c3ccccc3)(c3ccccc3)c3ccccc32)C(=O)c2ccccc21` : reported TGI = ? > 100 µM

Entry `O=c1n(N=S(=O)(c2ccccc2)c2ccccc2)c(=O)n2n1C1C=CC2CC1` : reported TGI = ? > 100 µM

Entry `O=C(Nc1ccccc1)c1cc(S(=O)(=O)Nc2nc3ncccc3[nH]2)c(SSc2cc(Cl)c(C(=O)Nc3ccccc3)cc2S(=O)(=O)Nc2nc3ncccc3[nH]2)cc1Cl` : reported TGI = ? > 100 µM

Entry `Cc1coc2c1[C@@H](O)[C@@]1(C)[C@H](CCC[C@@H]1C)C2` : reported TGI = ? 84.3 µM

Data provenance is PubChem BioAssay (NCI).
